# Test system: DAPI
# EXPERIMENTAL_DETAILS: TAG lipid buildup inhibition with viability readout – cell-based, panel, Nile Red and DAPI fluorescence, H9c2, dose response (AID 651630);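 note: cells exposed to compound overnight before fixation and staining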
# ASSAY_SETUP: H9c2 cells, DAPI nuclear fluorescence (cytotoxicity counter-readout), oleic acid, run 2
Reported IC50 cytotoxicity (DAPI nuclear signal decrease) values for the following compounds.

Past entries and their recorded results:
COc1ccc(-c2cc(CNc3nc(NC(C)C)nc4cc(-c5ccccc5)sc34)on2)cc1
> 25 µM
CN(C)CCNC(=O)c1cccc(-c2cnc3c(NC=O)cc(-c4cccc(C(F)(F)F)c4)cn23)c1
> 25 µM
CN1N=C(N)c2cn(C3OC(COP(=O)(O)O)C(O)C3O)c3ncnc1c23 (stereo not given)
8.79 µM
COc1ccccc1-c1cc(C(F)(F)F)nc(S(=O)(=O)CCCC(=O)NC(C)C)n1
17 µM
COc1ccccc1C1C2=C(COC2=O)Nc2cc3c(cc21)OCO3 (stereo not given)
> 25 µM

Specify reported IC50 cytotoxicity (DAPI nuclear signal decrease) for the compound shown: N#CCC(=O)N/N=C/c1cn(Cc2ccc(Cl)c(Cl)c2)c2ccccc12
> 25 µM

Return value of IC50 cytotoxicity (DAPI nuclear signal decrease) for input Cc1nn2c(NCc3ccccn3)c3c(nc2c1-c1ccccc1)CCC3 , no commentary.
> 25 µM

Using the record for COc1ccc2[nH]c3c(c2c1)CCN1C(=O)C(CC(=O)NCC24CC5CC(CC(C5)C2)C4)C[C@H](C(=O)N2CCOCC2)[C@@]31CCC1CCCC1 (stereo not given in full) , state its measured IC50 cytotoxicity (DAPI nuclear signal decrease).
> 25 µM

Write down IC50 cytotoxicity (DAPI nuclear signal decrease) measured for item O=C(NC1CCCCC1)C(c1ccccc1)N(Cc1ccc2c(c1)OCO2)C(=O)c1cnsn1 (stereo not given)
> 25 µM

Quickly give me recorded IC50 cytotoxicity (DAPI nuclear signal decrease) for COc1cc(OC)c2c(-c3ccccc3)cc(=O)oc2c1C(CCN1CCCCC1)c1ccc(N(C)C)cc1 (stereo not given)
> 25 µM

---

# System: DAPI
# EXPERIMENTAL_DETAILS: TAG lipid buildup inhibition with viability readout – cell-based, panel, Nile Red and DAPI fluorescence, H9c2, dose response (AID 651630);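 note: cells exposed to compound overnight before fixation and staining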
# ASSAY_SETUP: H9c2 cells, DAPI nuclear fluorescence (cytotoxicity counter-readout), oleic acid, run 2
ASSAY_ENDPOINT: IC50 cytotoxicity (DAPI nuclear signal decrease)

Worked examples, 2 compounds total:
Nc1c(C(=O)Nc2ccccc2)c2nc3ccccc3nc2n1CCCN1CCOCC1
> 25 µM
Oc1ccc(C[C@H]2CNC(=S)N2CC2CCCN2C[C@H](Cc2ccc(O)cc2)N2C[C@H](Cc3ccc(O)cc3)N(CC3CCCCC3)C2=S)cc1 (stereo partly drawn)
> 25 µM

// below: IC50 cytotoxicity (DAPI nuclear signal decrease) requested for another compound
Look up IC50 cytotoxicity (DAPI nuclear signal decrease) of CCCN(CCC)CCNC(=O)c1cc2c(=O)n(CC)c3ccccc3c2s1 and report it.
> 25 µM

---

Measured IC50 cytotoxicity (DAPI nuclear signal decrease) by item
# Tested on: DAPI
# EXPERIMENTAL_DETAILS: TAG lipid buildup inhibition with viability readout – cell-based, panel, Nile Red and DAPI fluorescence, H9c2, dose response (AID 651630);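 note: cells exposed to compound overnight before fixation and staining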
# ASSAY_SETUP: H9c2 cells, DAPI nuclear fluorescence (cytotoxicity counter-readout), oleic acid, mean of runs
The source made the active and inactive calls.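 How the source made its calls: active means lipid-stain IC50 at or below a set limit, with nuclear-stain toxicity IC50 at least five times higher; inactive means the rest.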

In the examples that follow, each entry is paired with its recorded IC50 cytotoxicity (DAPI nuclear signal decrease).
Cc1cccc(NC(=O)c2ccc([N+](=O)[O-])o2)c1C
10.3 µM (inactive)
CC(=O)Nc1ccc(NC2=Nc3ccccc3N3C2=Nc2c(c(C)nn2-c2ccccc2)C3c2ccccc2)cc1 (centres undefined)
> 25 µM (inactive)
Cc1ccc(-c2cc(C(F)F)n3ncc(C(=O)Nc4c(C)nn(Cc5c(Cl)cccc5Cl)c4C)c3n2)cc1
> 25 µM (inactive)

We next turn to a different compound, shown below.
Input COC(=O)c1ccc(/C=C/c2c(-c3ccsc3)oc3ccc(N4CCOCC4)cc23)cc1 , output reported IC50 cytotoxicity (DAPI nuclear signal decrease).
> 25 µM (inactive)

The reported measurements were obtained from PubChem BioAssay AID651630.
